# System: full-length P84S E. coli SPase (Ser-variant) (Escherichia coli, UniProt P00803, P84S)
# Construct: Full length His-tagged E. coli SPase proteins were expressed in BL21(DE3); His6
# Experiment: biochemical
Readout label: pKd
Scale: negative log10 of molar concentration, which is what pKd denotes.

For CCCCCCCCCCCCCCCC(=O)N(C)[C@H](CO)C(=O)N[C@H](C)C(=O)NCC(=O)N(C)[C@@H]1C(=O)N[C@@H](C)C(=O)N[C@H](C(=O)O)Cc2ccc(O)c(c2)-c2cc1ccc2O [Arylomycin C16] , what is its reported pKd?
8.24

----------
# System: full-length P29S mutant S. aureus SPase (Ser-variant) (Staphylococcus aureus, UniProt P0A070, P29S)
# Construct: Full length His-tagged S. aureus SPase proteins were expressed in and purified from BL21(DE3); His6 (N)
# Sequence (P0A070 1-191 P29S): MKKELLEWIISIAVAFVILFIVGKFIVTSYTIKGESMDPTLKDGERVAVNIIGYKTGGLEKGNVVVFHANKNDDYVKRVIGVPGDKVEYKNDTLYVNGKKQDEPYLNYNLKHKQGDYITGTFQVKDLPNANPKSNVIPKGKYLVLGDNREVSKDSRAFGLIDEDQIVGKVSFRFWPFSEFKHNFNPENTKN
# Experiment: biochemical
Readout label: pKd
Scale: negative log10 of molar concentration, which is what pKd denotes.

For `CCCCCCCCCCCCCCCC(=O)N(C)[C@H](CO)C(=O)N[C@H](C)C(=O)NCC(=O)N(C)[C@@H]1C(=O)N[C@@H](C)C(=O)N[C@H](C(=O)O)Cc2ccc(O)c(c2)-c2cc1ccc2O` , what is its reported pKd?
6.89
